System: DIV30
Assay: qHTS profiling for inhibitors of Plasmodium falciparum proliferation (AID 504749); note: nearly all actives have a fitted effect of over 60% in size
Conditions: P. falciparum in erythrocytes, SYBR Green DNA, 72 h; series mostly up to 28.7 µM
Inconclusive results are not listed. Calls of active or inactive are those of the source. Calls come from the whole dose curve; as a rule, active = well fitted inhibition curve with a large enough effect; inconclusive = small, poorly fitted or top-dose-only effect; inactive = flat fitted curve, though single readings scatter.
metric.name: outcome

compound=CC(C)(C)C(=O)OCOC(=O)[C@@H]1N2C(=O)[C@@H](N=CN3CCCCCC3)[C@H]2SC1(C)C experimental_result=inactive
compound=O=C(O)c1cc(O)c2c(c1)[O][Bi][O]2 experimental_result=inactive
compound="CCC(=O)NCCC1CCc2ccc3c(c21)CCO3 (stereo not drawn)" experimental_result=inactive

---

System: CP315
Test: qHTS profiling for inhibitors of Plasmodium falciparum proliferation (AID 504749); note: nearly all actives have a fitted effect of over 60% in size
Settings: P. falciparum in erythrocytes, SYBR Green DNA, 72 h; series mostly up to 28.7 µM
Inconclusive results are not listed. The source made the active and inactive calls. Calls come from the whole dose curve; as a rule, active = well fitted inhibition curve with a large enough effect; inconclusive = small, poorly fitted or top-dose-only effect; inactive = flat fitted curve, though single readings scatter.
Outcomes: y for active, n for inactive

compound=CC(C)N=c1cc2n(-c3ccc(Cl)cc3)c3ccccc3nc-2cc1Nc1ccc(Cl)cc1 classification=n
compound=Cc1ccccc1 classification=n
compound="CCC(=O)NCCC1CCc2ccc3c(c21)CCO3 (stereo not drawn)" classification=n
compound=CCCC(=O)O[C@]1(C(=O)CCl)[C@H](C)C[C@@H]2[C@H]3CCC4=CC(=O)C=C[C@]4(C)[C@@]3(F)C(=O)C[C@@]21C classification=y
compound=C[C@]12O[C@H](C[C@]1(O)CO)n1c3ccccc3c3c4c(c5c6ccccc6n2c5c31)CNC4=O classification=y
compound=CCCCCCCCCCCCCCCC(=O)OCC(COC(=O)CCCCCCCCCCCCCCC)OC(=O)CCCCCCCCCCCCCCC classification=n
compound=CN(C)CCCN1c2ccccc2C(C)(C)c2ccccc21 classification=n
compound=C=C1C(=CC=C2CCC[C@@]3(C)[C@@H]2CC[C@H]3[C@H](C)CCCC(C)C)C[C@@H](O)C[C@@H]1O classification=n
compound="Cc1ccccc1OCC(O)CNCCOc1ccc(C(N)=O)cc1 (stereo not drawn)" classification=n
compound="CC(O)CO (stereo not drawn)" classification=n
compound="CC(Cc1ccc(O)c(O)c1)C(C)Cc1ccc(O)c(O)c1 (stereo not drawn)" classification=n
compound=Nc1ncnc2c1ncn2[C@@H]1O[C@H](COP(=O)(O)OP(=O)(O)OP(=O)(O)O)[C@@H](O)[C@H]1O classification=n
compound="COC(C(=O)C(O)C(C)O)C1Cc2cc3cc(OC4CC(OC5CC(O)C(O)C(C)O5)C(O)C(C)O4)c(C)c(O)c3c(O)c2C(=O)C1OC1CC(OC2CC(OC3CC(C)(O)C(O)C(C)O3)C(O)C(C)O2)C(O)C(C)O1 (stereo not drawn)" classification=y
compound=CCCCCCCCCCCCCC[n+]1ccc(C)cc1 classification=y
compound="CCCCC(C)(O)C/C=C/[C@H]1[C@H](O)CC(=O)[C@@H]1CCCCCCC(=O)OC (stereo partly drawn)" classification=n
compound=O=C(O)c1cc(=O)c2c3nc4ccccc4oc-3cc(=O)c2[nH]1 classification=n
compound=COc1ccc2c3c1O[C@H]1C[C@@H](O)C=C[C@@]31CCN(C)C2 classification=n
compound=Clc1cc(Cl)c(OCC#CI)cc1Cl classification=n

---

Below is a list of entries, each paired with its recorded Potency value.
System: CP335
Assay: qHTS profiling for inhibitors of Plasmodium falciparum proliferation (AID 504749); note: nearly all actives have a fitted effect of over 60% in size; note: potency is the fitted concentration of half-maximal effect
Conditions: P. falciparum in erythrocytes, SYBR Green DNA, 72 h; series mostly up to 28.7 µM
Inconclusive results are not listed. Calls of active or inactive are those of the source. Calls come from the whole dose curve; as a rule, active = well fitted inhibition curve with a large enough effect; inconclusive = small, poorly fitted or top-dose-only effect; inactive = flat fitted curve, though single readings scatter.
metric.name: Potency

record_smiles=CCCC(=O)O[C@]1(C(=O)CCl)[C@H](C)C[C@@H]2[C@H]3CCC4=CC(=O)C=C[C@]4(C)[C@@]3(F)C(=O)C[C@@]21C experimental_result="1510 nM (active)"
record_smiles=CCN(CC)Cc1cc(Nc2ccnc3cc(Cl)ccc23)ccc1O experimental_result="40.5 nM (active)"
record_smiles=CCCCCCOc1ccc(C(=N)N(CCCC)CCCC)c2ccccc12 experimental_result="8490 nM (active)"

---

Test system: CP203
Test: qHTS profiling for inhibitors of Plasmodium falciparum proliferation (AID 504749); note: nearly all actives have a fitted effect of over 60% in size
Settings: P. falciparum in erythrocytes, SYBR Green DNA, 72 h; series mostly up to 28.7 µM
Records with an inconclusive call do not appear. Active and inactive are the calls of the source. Calls come from the whole dose curve; as a rule, active = well fitted inhibition curve with a large enough effect; inconclusive = small, poorly fitted or top-dose-only effect; inactive = flat fitted curve, though single readings scatter.
Outcomes: 1 for active, -1 for inactive

compound=CCCCCCCC/C=C\CCCCCCCC(=O)O classification=-1
compound="CC(=O)Oc1c(C)cc(OCC(O)CNC(C)C)c(C)c1C (centres undefined)" classification=-1
compound=CCOc1ccc(N=Nc2ccc(N)cc2N)cc1 classification=-1
compound="CCCCC(C)(O)C/C=C/[C@H]1[C@H](O)CC(=O)[C@@H]1CCCCCCC(=O)OC (some centres undefined)" classification=-1
compound=CC1(C)S[C@@H]2[C@H](NC(=O)[C@@H](NC(=O)N3CCNC3=O)c3ccccc3)C(=O)N2[C@H]1C(=O)O classification=-1
compound="Oc1cc(O)c2c(c1)OC(c1ccc(O)c(O)c1)C(O)C2 (centres undefined)" classification=-1
compound=COc1ccc2c3c1O[C@H]1C[C@@H](O)C=C[C@@]31CCN(C)C2 classification=-1
compound="COC(=O)C1=C(C#N)NC(C)=C(C(=O)OC(C)C)C1c1cccc([N+](=O)[O-])c1 (centres undefined)" classification=1
compound="CC1(C)C(C=C(Cl)Cl)C1C(=O)OCc1cccc(Oc2ccccc2)c1 (centres undefined)" classification=-1
compound="NC(=O)c1ncn(C2OC(CO)C(O)C2O)n1 (centres undefined)" classification=-1
compound="CC(O)CO (centres undefined)" classification=-1
compound=CC(C)(C)C(=O)OCOC(=O)[C@@H]1N2C(=O)[C@@H](N=CN3CCCCCC3)[C@H]2SC1(C)C classification=-1
compound="Cc1ccccc1OCC(O)CNCCOc1ccc(C(N)=O)cc1 (centres undefined)" classification=-1
compound=CCCC(=O)O[C@]1(C(=O)CCl)[C@H](C)C[C@@H]2[C@H]3CCC4=CC(=O)C=C[C@]4(C)[C@@]3(F)C(=O)C[C@@]21C classification=1
compound="CCCC(=O)Nc1ncnc2c1ncn2C1OC2COP(=O)(O)OC2C1OC(=O)CCC (centres undefined)" classification=-1
compound=CC[N+](C)(C)Cc1ccccc1Br classification=-1
compound=CC(C)N=c1cc2n(-c3ccc(Cl)cc3)c3ccccc3nc-2cc1Nc1ccc(Cl)cc1 classification=-1
compound=CC(C)=O classification=-1
compound=O=C(COc1ccc(Cl)cc1)OCCNC12CC3CC(CC(C3)C1)C2 classification=-1

---

Molecular target: Nicotinamide N-methyltransferase (Homo sapiens)
Assay: Confirmatory Screen for Target Class Profiling of Small Molecule Inhibitors of Methyltransferases (AID 1745852)
Details: MTase-Glo luminescence, SAH detection, recombinant enzyme; measured here: NNMT max response; stronger effect = lower value
metric.name: activity (%)

molecule="CC1(CO)CC[C@]2(C(=O)O[C@@H]3O[C@H](CO)[C@@H](O)[C@H](O)[C@H]3O)CC[C@]3(C)C(=CCC4[C@@]5(C)C[C@H](O)[C@H](O[C@@H]6OC[C@@H](O)[C@H](O)[C@H]6O)[C@@](C)(CO)C5CC[C@]43C)C2C1 (stereo partly drawn)" measured_on="Nicotinamide N-methyltransferase (Homo sapiens)" experimental_result=2.23
molecule="CC1CC(O)C2(C)C(C(=O)O)=CCCC2C1(C)CCc1ccoc1 (stereo not drawn)" measured_on="Nicotinamide N-methyltransferase (Homo sapiens)" experimental_result=2.05
molecule="CC1=CC(=O)C2C(C)(C)CCCC2(C)C12CCC1(COC(=O)C1)O2 (stereo not drawn)" measured_on="Nicotinamide N-methyltransferase (Homo sapiens)" experimental_result=-1.78
molecule="CC1=CC(=O)CC(C)(C)C1(O)CCC(C)O (stereo not drawn)" measured_on="Nicotinamide N-methyltransferase (Homo sapiens)" experimental_result=0
molecule="COc1cc2c(Nc3ccc(Cl)c(Cl)c3F)ncnc2cc1OCC1C[C@@H]2CN(C)C[C@@H]2C1 (stereo partly drawn)" measured_on="Nicotinamide N-methyltransferase (Homo sapiens)" experimental_result=-73.4
molecule=COCCN(C)Cc1ccc2nc3sc(C(=O)N(C)C4CCCCC4)cn3c2c1 measured_on="Nicotinamide N-methyltransferase (Homo sapiens)" experimental_result=1.46
molecule=COc1cc(/C=C/c2cc(O)cc(O[C@@H]3O[C@H](CO)[C@@H](O)[C@H](O)[C@H]3O)c2)ccc1O measured_on="Nicotinamide N-methyltransferase (Homo sapiens)" experimental_result=-2.24
molecule="OC1COC(OCC2OC(OCCc3ccccc3)C(O)C(O)C2O)C(O)C1O (stereo not drawn)" measured_on="Nicotinamide N-methyltransferase (Homo sapiens)" experimental_result=0
